Below, each entry is listed with its recorded composite z-score.
- MEASUREMENT_PROTOCOL: small-molecule microarray binders of probe aCHRDL2, primary screen, biochemical, biotinylated probe, 635/667 nm fluorescence (AID 1100)
- EXPERIMENTAL_CONTEXT: higher = more signal
PARAMETER: composite z-score

>>> readout_value("C=CCC(OC(C)=O)[C@@H]1[C@@H](N(Cc2ccc(-c3cccc(C(F)(F)F)c3)o2)C(=O)Cc2ccc(OC)cc2)c2cc(OCCCO)ccc2N1C(=O)c1ccc2ccccc2n1 (some centres not stated)")
0.621
>>> readout_value("CCOC(=O)C[C@H]1[C@H](OC(=O)c2ccc(-c3ccccc3)cc2)[C@@H](NC(=O)CC(C)C)c2cc(OCCCO)ccc2N1C(=O)Cc1ccc(OC)cc1")
0.624
>>> readout_value("COCCOC(=O)N1C(=O)[C@@]2(c3cc(C#CC4=CCCCC4)ccc31)[C@H](c1ccccc1OCCO)N1[C@H](c3ccccc3)[C@H](c3ccccc3)OC(=O)[C@H]1[C@@H]2C(N)=O")
-0.144
>>> readout_value("C=CC[C@@]1(C(=O)O)N=C(c2ccc(OCCCO)cc2)O[C@@H]1c1ccccc1CN=[N+]=[N-]")
0.062
>>> readout_value("CN(C)CCCC[C@@H]1NC(=O)[C@H]2C[C@@H](C(=O)O)[C@@H](c3cccc(OCCO)c3)N2C1=O")
0.555
>>> readout_value("CN(C)CCCC[C@@H]1NC(=O)[C@@H]2C[C@H](C(=O)NCCCCCCNC(=O)CS)[C@H](c3cccc(OCCO)c3)N2C1=O")
0.358
>>> readout_value("CCCCN1CC=CC23O[C@@H]4C=CCOC(=O)[C@@H]4[C@H]2C(=O)N(CCO)[C@@H]3C1=O (some centres not stated)")
0.537

----------
- ASSAY_TARGET: Neurogenic locus notch homolog protein 3 (Homo sapiens) (UniProt Q9UM47)
- Sequence (Q9UM47 whole entry, looked up): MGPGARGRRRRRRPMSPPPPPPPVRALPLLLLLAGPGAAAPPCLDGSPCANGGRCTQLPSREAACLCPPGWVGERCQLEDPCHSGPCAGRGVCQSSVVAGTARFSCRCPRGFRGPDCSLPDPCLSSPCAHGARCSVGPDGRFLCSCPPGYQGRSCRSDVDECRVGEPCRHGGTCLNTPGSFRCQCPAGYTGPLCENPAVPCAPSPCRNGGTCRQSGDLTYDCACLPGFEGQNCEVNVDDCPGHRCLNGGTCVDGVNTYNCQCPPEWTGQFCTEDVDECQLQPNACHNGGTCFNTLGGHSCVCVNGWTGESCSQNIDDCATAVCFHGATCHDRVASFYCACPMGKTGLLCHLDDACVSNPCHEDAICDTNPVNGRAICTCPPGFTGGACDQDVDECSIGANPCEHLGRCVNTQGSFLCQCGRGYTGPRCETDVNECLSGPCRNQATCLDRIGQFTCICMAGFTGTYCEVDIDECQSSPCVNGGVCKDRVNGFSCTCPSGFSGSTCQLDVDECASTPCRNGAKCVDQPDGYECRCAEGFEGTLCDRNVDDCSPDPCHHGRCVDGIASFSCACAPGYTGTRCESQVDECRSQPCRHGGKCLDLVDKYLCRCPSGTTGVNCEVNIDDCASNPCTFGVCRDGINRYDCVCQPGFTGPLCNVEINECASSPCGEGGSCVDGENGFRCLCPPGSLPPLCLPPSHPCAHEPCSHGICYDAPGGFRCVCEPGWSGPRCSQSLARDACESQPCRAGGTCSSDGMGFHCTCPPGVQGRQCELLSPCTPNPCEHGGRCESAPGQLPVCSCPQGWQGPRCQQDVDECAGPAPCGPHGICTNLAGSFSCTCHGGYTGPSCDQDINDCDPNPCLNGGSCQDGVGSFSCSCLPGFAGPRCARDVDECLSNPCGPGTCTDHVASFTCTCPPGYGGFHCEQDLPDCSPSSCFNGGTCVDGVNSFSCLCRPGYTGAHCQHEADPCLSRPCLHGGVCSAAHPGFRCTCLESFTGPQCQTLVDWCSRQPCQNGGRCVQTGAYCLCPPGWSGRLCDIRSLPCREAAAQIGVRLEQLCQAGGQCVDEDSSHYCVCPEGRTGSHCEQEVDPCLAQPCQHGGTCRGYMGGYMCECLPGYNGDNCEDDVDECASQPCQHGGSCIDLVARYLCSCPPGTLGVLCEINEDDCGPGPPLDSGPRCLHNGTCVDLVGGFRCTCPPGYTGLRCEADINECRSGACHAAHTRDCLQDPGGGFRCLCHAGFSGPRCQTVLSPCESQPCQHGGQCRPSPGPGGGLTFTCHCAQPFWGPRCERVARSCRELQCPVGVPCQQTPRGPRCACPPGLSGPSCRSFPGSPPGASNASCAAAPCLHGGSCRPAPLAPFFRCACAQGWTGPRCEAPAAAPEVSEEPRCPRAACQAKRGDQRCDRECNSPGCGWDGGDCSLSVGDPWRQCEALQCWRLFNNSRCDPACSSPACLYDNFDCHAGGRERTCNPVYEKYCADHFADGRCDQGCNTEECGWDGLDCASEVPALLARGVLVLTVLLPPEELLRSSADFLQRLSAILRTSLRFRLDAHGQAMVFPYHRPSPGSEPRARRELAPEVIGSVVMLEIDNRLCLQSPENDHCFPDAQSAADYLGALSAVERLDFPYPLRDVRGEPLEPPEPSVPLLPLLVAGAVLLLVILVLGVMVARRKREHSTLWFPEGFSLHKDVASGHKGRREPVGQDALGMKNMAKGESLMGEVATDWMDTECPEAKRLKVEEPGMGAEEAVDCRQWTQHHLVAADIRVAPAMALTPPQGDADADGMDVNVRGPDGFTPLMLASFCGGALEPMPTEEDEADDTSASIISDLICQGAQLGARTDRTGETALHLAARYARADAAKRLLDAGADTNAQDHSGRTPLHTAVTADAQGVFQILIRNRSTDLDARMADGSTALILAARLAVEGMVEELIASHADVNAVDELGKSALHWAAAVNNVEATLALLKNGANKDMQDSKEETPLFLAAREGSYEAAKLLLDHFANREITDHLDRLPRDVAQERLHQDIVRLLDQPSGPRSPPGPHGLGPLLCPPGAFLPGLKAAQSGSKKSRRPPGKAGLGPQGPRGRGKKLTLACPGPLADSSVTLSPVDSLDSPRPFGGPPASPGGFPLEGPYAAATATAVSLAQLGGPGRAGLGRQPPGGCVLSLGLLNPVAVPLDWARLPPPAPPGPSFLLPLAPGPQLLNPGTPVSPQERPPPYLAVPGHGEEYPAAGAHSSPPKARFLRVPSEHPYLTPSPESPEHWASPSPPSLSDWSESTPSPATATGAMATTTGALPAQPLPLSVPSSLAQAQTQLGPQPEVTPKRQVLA
- MEASUREMENT_PROTOCOL: NOTCH3 binders on small-molecule microarray, primary screen, biochemical, 635/667 nm fluorescence (AID 1096)
- EXPERIMENTAL_CONTEXT: NOTCH3 binding, 635 nm fluorescence, higher = more signal
Assign class by composite z-score: not lower than -0.02 means rule met; lower than -0.02 means rule not met.

>>> qualitative_label("COc1ccc([Si](C)(C)[C@H]2[C@H](CCn3cc([C@H](O)c4ccccc4)nn3)O[C@@]3(C(=O)N(c4ccccc4)c4ccccc43)[C@@H]2C)cc1")
"rule met"
>>> qualitative_label("O=C1NC(=O)C2C1C=CC(C(O)c1ccc(F)cc1)N2Nc1ccccn1 (centres undefined)")
"rule not met"
>>> qualitative_label("NCCCC[C@@H]1NC(=O)[C@H]2C[C@@H](C(=O)NCc3ccc(F)cc3)[C@@H](c3cccc(OCCO)c3)N2C1=O")
"rule met"
>>> qualitative_label("CC(=O)n1cc(C(O)C2C=CC3C(=O)N(c4ccccc4)C(=O)C3N2Nc2ccccc2F)c2ccccc21 (centres undefined)")
"rule not met"
>>> qualitative_label("C=CCOC(=O)[C@H]1[C@@H]2C(=O)O[C@@H](c3ccccc3)[C@@H](c3ccccc3)N2[C@@H](c2ccc(OCCOC(=O)[C@@H]3C[C@@H]4C(=O)N[C@@H](Cc5ccccc5)C(=O)N4[C@@H]3c3ccc(O)cc3)cc2)[C@]12C(=O)Nc1ccccc12")
"rule met"
>>> qualitative_label("C/C=C/CN(C(=O)C#Cc1ccccc1)[C@H](CO[Si](C)(C)C(C)(C)C)c1ccccc1")
"rule not met"
>>> qualitative_label("O=C(NCC(F)(F)F)[C@@H]1c2ccccc2C(=O)N(CC23CC4CC(CC(C4)C2)C3)[C@H]1c1ccc(CO)cc1")
"rule met"
>>> qualitative_label("Cc1ccc(S(=O)(=O)N2[C@@H](c3ccccc3)C(C(=O)O)=CC[C@H]2c2ccc(C#N)cc2)cc1")
"rule met"
>>> qualitative_label("CC(C)N1CC=CC23O[C@@H]4C=CCCOC(=O)C4[C@H]2C(=O)N(CCCCCO)[C@@H]3C1=O (some centres undefined)")
"rule not met"
>>> qualitative_label("COC(=O)Cn1c(C(=O)N(C)C)cc2c1C[C@H]1CN(C(=O)c3ccccc3)[C@@](Cc3ccc(OC)cc3)(C(=O)OC)[C@@H]21")
"rule met"
>>> qualitative_label("COC(=O)[C@H](Cc1ccc(O)cc1)N1CC2=CCCC=C[C@@H]2[C@H]1[C@H](O)Cc1ccccc1")
"rule not met"
>>> qualitative_label("COC(=O)[C@@]1(Cc2ccc(F)cc2)[C@H]2c3cc(C(=O)N(C)C)n(CCN4CCOCC4)c3C[C@H]2CN1C(=O)c1ccccc1")
"rule met"
>>> qualitative_label("O=C1N(CCS(=O)(=O)c2ccccc2)c2ccccc2[C@@H]2OC(c3ccc(OCCCO)cc3)=N[C@]12CCS(=O)(=O)c1ccccc1")
"rule met"
>>> qualitative_label("CC1CC/C=C\\[C@H]2OC34C=CCN(CCN5CCOCC5)C(=O)[C@H]3N(CCCCCCO)C(=O)[C@@H]4C2C(=O)O1 (some centres undefined)")
"rule not met"
